Origin of measurements: ChEMBL document CHEMBL3616475

# Species: Rattus norvegicus
# protocol.details: Selectivity ratio of Ki for Adenosine A2A receptor in Sprague-Dawley rat striatal membranes to Ki for Adenosine A1 receptor in Sprague-Dawley rat whole brain membranes
attribute.measured: Ratio Ki

Some compounds with known Ratio Ki results, for comparison:
[
  {
    "compound": "CCn1c(=O)c2c(nc(COc3ccccc3)n2C)n(CC)c1=O",
    "attribute.measured": "Ratio Ki",
    "val": 2
  },
  {
    "compound": "CCn1c(=O)c2c(nc(COc3ccccc3)n2CC)n(CC)c1=O",
    "attribute.measured": "Ratio Ki",
    "val": 6
  },
  {
    "compound": "Cn1c(=O)c2c(nc(COc3ccccc3)n2C)n(C)c1=O",
    "attribute.measured": "Ratio Ki",
    "val": 0.77
  },
  {
    "compound": "CCn1c(=O)c2c(nc(CCCc3ccccc3)n2C)n(CC)c1=O",
    "attribute.measured": "Ratio Ki",
    "val": 3
  },
  {
    "compound": "CCn1c(CCCc2ccccc2)nc2c1c(=O)n(C)c(=O)n2C",
    "attribute.measured": "Ratio Ki",
    "val": 19
  }
]

1: Cn1c(=O)c2c(nc(CCc3ccccc3)n2C)n(C)c1=O
2: CCn1c(COc2ccccc2)nc2c1c(=O)n(C)c(=O)n2C
3: CCn1c(=O)c2c(nc(CCc3ccccc3)n2C)n(CC)c1=O
4: CCn1c(=O)c2c(nc(CCCc3ccccc3)n2CC)n(CC)c1=O
Input line: Could you please order the items by Ratio Ki, going from the lowest number to the highest? // respond by listing labels in the order requested
Output line: 1, 2, 3, 4

1: Cn1c(=O)c2c(nc(CCCc3ccccc3)n2C)n(C)c1=O
2: CCn1c(=O)c2c(nc(CCc3ccccc3)n2CC)n(CC)c1=O
Input line: Identify the item whose Ratio Ki is the smaller number: 1 or 2 Answer with the label corresponding to your selection.
Output line: 1

* * *

Let's go through some recorded Ki values for Adenosine receptor A1 (Rattus norvegicus) together.
attribute.measured: Ki (nM)

A: CCn1c(=O)c2c(nc(COc3ccccc3)n2CC)n(CC)c1=O
B: CCn1c(=O)c2c(nc(CCc3ccccc3)n2CC)n(CC)c1=O
C: CCn1c(=O)c2c(nc(CCCc3ccccc3)n2CC)n(CC)c1=O
Input line: # rank above entries by Ki (max first, min last) // respond by listing labels in the order requested
Output line: B, A, C
(B: 543 nM, A: 356 nM, C: 139 nM)

* * *

# test.system: Adenosine receptor A2a (Rattus norvegicus, UniProt P30543)
# Sequence (P30543 whole entry): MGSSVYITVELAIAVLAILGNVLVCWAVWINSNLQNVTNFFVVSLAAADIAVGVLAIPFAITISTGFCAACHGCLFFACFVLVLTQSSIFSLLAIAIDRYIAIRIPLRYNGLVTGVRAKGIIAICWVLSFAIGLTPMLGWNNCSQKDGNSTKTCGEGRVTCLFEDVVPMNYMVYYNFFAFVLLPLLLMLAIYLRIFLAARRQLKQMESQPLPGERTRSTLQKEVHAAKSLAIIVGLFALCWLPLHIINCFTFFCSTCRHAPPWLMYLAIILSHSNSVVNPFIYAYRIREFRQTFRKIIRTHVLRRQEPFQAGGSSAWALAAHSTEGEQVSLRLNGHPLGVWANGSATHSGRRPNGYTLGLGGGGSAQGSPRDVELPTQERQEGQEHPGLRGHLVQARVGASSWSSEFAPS
# protocol.details: Binding affinity to Adenosine A2A receptor in rat brain tissue by radioligand displacement assay
# Format: tissue-based
attribute.measured: Ki (µM)
Answer in µM, number only, no unit symbol.

Input line: Which measured Ki value corresponds to Cn1c(=O)c2c(nc(-c3ccccc3)n2C)n(C)c1=O ?
Output line: 27

* * *

# test.system: Adenosine receptor A2a (Rattus norvegicus, UniProt P30543)
# protocol.details: Displacement of [3H]-NECA from Adenosine A2A receptor in Sprague-Dawley rat striatal membranes
# Set-up: species or system Striatum, Membrane
pKi: −log10 of the molar value.
attribute.measured: pKi

Some compounds with known pKi results, for comparison:
[
  {
    "compound": "CCn1c(COc2ccccc2)nc2c1c(=O)n(C)c(=O)n2C",
    "pKi": 5.65
  },
  {
    "compound": "CCn1c(=O)c2c(nc(COc3ccccc3)n2CC)n(CC)c1=O",
    "pKi": 5.58
  },
  {
    "compound": "Cn1c(=O)c2c(nc(CCCc3ccccc3)n2C)n(C)c1=O",
    "pKi": 5.17
  }
]

1: Cn1c(=O)c2c(nc(CCc3ccccc3)n2C)n(C)c1=O
2: CCn1c(=O)c2c(nc(COc3ccccc3)n2C)n(CC)c1=O
Input line: Identify the item whose pKi is the smaller number: 1 or 2 Answer with the label corresponding to your selection.
Output line: 1

* * *

# test.system: Adenosine receptor A1 (Rattus norvegicus, UniProt P25099)
# Sequence (P25099 whole entry): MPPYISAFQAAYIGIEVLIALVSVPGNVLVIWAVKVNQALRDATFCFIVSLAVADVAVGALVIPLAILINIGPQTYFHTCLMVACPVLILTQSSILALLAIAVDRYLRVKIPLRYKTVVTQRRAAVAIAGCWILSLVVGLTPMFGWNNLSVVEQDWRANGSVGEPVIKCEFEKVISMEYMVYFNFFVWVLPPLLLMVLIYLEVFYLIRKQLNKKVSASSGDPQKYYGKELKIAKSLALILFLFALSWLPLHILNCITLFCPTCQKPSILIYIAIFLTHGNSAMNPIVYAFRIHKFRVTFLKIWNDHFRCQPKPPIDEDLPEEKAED
# protocol.details: Displacement of [3H]-DPCPX from Adenosine A1 receptor in Sprague-Dawley rat whole brain membranes
# Design: species or system Membrane
pKi: −log10 of the molar value.
attribute.measured: pKi

[
  {
    "compound": "CCn1c(=O)c2c(nc(COc3ccccc3)n2CC)n(CC)c1=O",
    "pKi": 6.38
  },
  {
    "compound": "CCn1c(=O)c2c(nc(CCCc3ccccc3)n2C)n(CC)c1=O",
    "pKi": 5.91
  },
  {
    "compound": "CCn1c(=O)c2c(nc(CCc3ccccc3)n2C)n(CC)c1=O",
    "pKi": 6.09
  },
  {
    "compound": "Cn1c(=O)c2c(nc(CCCc3ccccc3)n2C)n(C)c1=O",
    "pKi": 5.81
  },
  {
    "compound": "CCn1c(=O)c2c(nc(COc3ccccc3)n2C)n(CC)c1=O",
    "pKi": 6.06
  }
]

I: CCn1c(CCc2ccccc2)nc2c1c(=O)n(C)c(=O)n2C
II: CCn1c(=O)c2c(nc(CCc3ccccc3)n2CC)n(CC)c1=O
III: Cn1c(=O)c2c(nc(CCc3ccccc3)n2C)n(C)c1=O
IV: Cn1c(=O)c2c(nc(COc3ccccc3)n2C)n(C)c1=O
Input line: Could you please order the items by pKi, going from the lowest number to the highest? // respond by listing labels in the order requested
Output line: III, IV, I, II
